Assignment: determine reported Ki for the given molecules.
- TEST TARGET: 5-hydroxytryptamine receptor 1A (Homo sapiens, UniProt P08908)
- Sequence (P08908 whole entry): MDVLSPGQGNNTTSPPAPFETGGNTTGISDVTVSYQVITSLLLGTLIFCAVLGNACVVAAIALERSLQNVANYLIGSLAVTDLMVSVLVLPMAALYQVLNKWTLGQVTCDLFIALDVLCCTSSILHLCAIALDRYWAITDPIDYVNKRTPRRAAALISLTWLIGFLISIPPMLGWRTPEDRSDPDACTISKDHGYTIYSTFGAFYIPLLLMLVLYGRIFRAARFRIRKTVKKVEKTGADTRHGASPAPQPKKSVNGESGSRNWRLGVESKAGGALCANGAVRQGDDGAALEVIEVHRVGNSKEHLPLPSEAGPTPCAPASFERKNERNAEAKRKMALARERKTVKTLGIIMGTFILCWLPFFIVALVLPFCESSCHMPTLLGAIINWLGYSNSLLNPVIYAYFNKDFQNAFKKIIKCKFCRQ
- ASSAY SUMMARY: Displacement of [3H]-8-OH-DPAT from recombinant human 5HT1A receptor expressed in CHO cell membranes measured after 60 mins by microbeta scintillation counting analysis
The reply should contain only the number, in nM.

Challenge: Tell me Ki reported for COc1ccc2[nH]cc(C3CCCN(CCCCn4c(=O)c(-c5ccccc5Cl)c5ccccn5c4=O)C3)c2c1 (stereo not drawn)
Response given: 176

Challenge: Consider the molecule COc1ccc2[nH]cc(C3CCCN(CCCCn4c(=O)c(-c5ccccc5C)c5ccccn5c4=O)C3)c2c1 (stereo not drawn) . State its measured Ki.
Response given: 476

Challenge: Identify Ki associated with the molecule COc1ccc2[nH]cc(C3CCCN(CCCCn4c(=O)c(-c5ccc(C)cc5)c5ccccn5c4=O)C3)c2c1 (stereo not drawn)
Response given: 333

Challenge: Give a short answer stating reported Ki for O=c1c(-c2ccccc2)c2ccccn2c(=O)n1CCCCN1CCCC(c2c[nH]c3ccc(F)cc23)C1 (stereo not drawn) .
Response given: 209

Challenge: Name the recorded Ki of the molecule listed here: O=c1c(-c2ccccc2)c2ccccn2c(=O)n1CCCCN1CCCC(c2c[nH]c3ccccc23)C1 (stereo not drawn)
Response given: 22

Challenge: Supply recorded Ki for Cc1ccc(-c2c(=O)n(CCCCN3CCCC(c4c[nH]c5ccc(F)cc45)C3)c(=O)n3ccccc23)cc1 (stereo not drawn) here.
Response given: 136

Challenge: Output measured Ki for this item: COc1ccc2[nH]cc(C3CCCN(CCCCn4c(=O)c(-c5ccccc5F)c5ccccn5c4=O)C3)c2c1 (stereo not drawn)
Response given: 130

Challenge: Write down Ki measured for item O=c1c(-c2ccccc2F)c2ccccn2c(=O)n1CCCCN1CCCC(c2c[nH]c3ccc(F)cc23)C1 (stereo not drawn)
Response given: 218
